Source listed as patent US20250082687A1.

Assay: Cytotoxicity of peptides (MTT cell viability)
Format: cell-based, human
Conditions: human, SH-SY5Y cells, all tested concentrations (0.4˜40 ug/ml)
Where a SMILES comes first, the peptide text is derived from it.
endpoint-label: viability at 48 h

CC[C@H](C)[C@H](NC(=O)[C@H](CO)NC(=O)[C@@H]1CCCN1)C(=O)N[C@@H](CO)C(=O)O [brPEP-1, PSIS] (H-PSIS-OH): > 90%

Consider the additional compound presented here.
Task: Returns the measured viability at 48 h for the input compound. Input: C[C@H](NC(=O)[C@@H]1CCCN1C(=O)CN)C(=O)NCC(=O)N1CCC[C@H]1C(=O)N[C@@H](CCC(N)=O)C(=O)NCC(=O)N1CCC[C@H]1C(=O)N[C@@H](CCCNC(=N)N)C(=O)O [brPEP-2, GPAGPQGPR]
Output: > 90%
